Data provenance is PubChem BioAssay (Tox21).

# Tested target: Androgen receptor (Homo sapiens) (UniProt P10275)
# Sequence (P10275 whole entry, looked up): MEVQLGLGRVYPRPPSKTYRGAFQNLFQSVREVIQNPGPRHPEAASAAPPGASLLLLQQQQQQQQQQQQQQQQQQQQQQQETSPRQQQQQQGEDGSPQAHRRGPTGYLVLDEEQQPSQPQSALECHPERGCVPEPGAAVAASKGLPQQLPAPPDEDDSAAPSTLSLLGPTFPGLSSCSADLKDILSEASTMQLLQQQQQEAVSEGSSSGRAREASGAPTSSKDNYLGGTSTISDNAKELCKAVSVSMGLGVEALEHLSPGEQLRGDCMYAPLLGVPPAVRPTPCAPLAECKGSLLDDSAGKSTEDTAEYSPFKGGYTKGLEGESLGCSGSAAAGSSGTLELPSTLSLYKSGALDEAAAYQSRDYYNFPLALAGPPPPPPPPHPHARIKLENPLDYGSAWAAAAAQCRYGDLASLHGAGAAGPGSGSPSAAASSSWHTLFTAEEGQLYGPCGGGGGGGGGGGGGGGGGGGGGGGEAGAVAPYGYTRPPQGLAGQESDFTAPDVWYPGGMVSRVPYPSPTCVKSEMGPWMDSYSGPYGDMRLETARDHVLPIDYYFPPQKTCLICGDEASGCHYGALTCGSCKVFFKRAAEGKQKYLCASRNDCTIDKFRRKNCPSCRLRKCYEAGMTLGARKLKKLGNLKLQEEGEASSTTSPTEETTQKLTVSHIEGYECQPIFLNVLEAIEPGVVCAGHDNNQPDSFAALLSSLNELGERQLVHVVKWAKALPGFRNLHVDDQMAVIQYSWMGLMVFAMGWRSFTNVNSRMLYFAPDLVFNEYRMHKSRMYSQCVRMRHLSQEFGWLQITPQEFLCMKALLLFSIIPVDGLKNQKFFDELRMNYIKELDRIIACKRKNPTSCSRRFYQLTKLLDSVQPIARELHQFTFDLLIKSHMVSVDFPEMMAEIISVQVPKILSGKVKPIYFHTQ
# Assay notes: qHTS assay to identify small molecule antagonists of the androgen receptor (AR) signaling pathway using the MDA cell line (AID 743042; also: % is scaled to controls: 0 for no effect and ±100 for the full control effect; nearly all actives have a fitted effect of over 55% in size)
# Condition: MDA-kb2 AR-luc, MMTV luciferase, R1881 antagonist, 16 h; series mostly up to 70.3 µM
Inconclusive results are not listed. Active and inactive are the calls of the source. Calls follow the shape of the dose curve; as a rule, active = well fitted inhibition curve with a large enough effect in the repeat runs; inconclusive = weak or mixed curves, or effect the other way; inactive = no such curve, though single readings can be large or run the other way.
Measured attribute: activity change, negative = inhibition

Check out these entries, answers already filled in.
Nc1cc(S(=O)(=O)O)ccc1O
inactive
O=C1c2ccccc2C(=O)N1CO
inactive
N#Cc1ccccc1C#N
inactive
COc1cc(OC)cc(OC)c1
inactive
CN(C)c1cc(NC(=O)CNC(C)(C)C)c(O)c2c1C[C@H]1C[C@H]3[C@H](N(C)C)C(=O)C(C(N)=O)=C(O)[C@@]3(O)C(=O)C1=C2O
inactive
CSC(=O)c1cccc2nnsc12
inactive
CCCCCCCCC1CO1 (centres undefined)
inactive
NNC(=O)OCc1ccccc1
inactive
C/C(=N\O)c1ccc(OCC(=O)N2CCCCC2)cc1
inactive
CC(C)(C)NCC(O)COc1cccc2c1CCC(=O)N2 (centres undefined)
inactive

The compound COCc1nnc(-c2ccc[n+]([O-])c2)n1-c1c(Cl)c(Cl)cc2[nH]c(=O)c(=O)[nH]c12 on Androgen receptor (Homo sapiens) (UniProt P10275): activity change, negative = inhibition was inactive

Field activity change, negative = inhibition (Androgen receptor (Homo sapiens) (UniProt P10275)), entry CCCC(=O)C(CC)Sc1ccoc1C (centres undefined) : inactive

Readout activity change, negative = inhibition for CC12CCCC=C1C(=O)OC2=O (centres undefined) , test system Androgen receptor (Homo sapiens) (UniProt P10275), was inactive

Reading of activity change, negative = inhibition for CC(O)C(CO)C(C)O (centres undefined) with Androgen receptor (Homo sapiens) (UniProt P10275): inactive

---

# Assay notes: qHTS assay to identify small molecule antagonists of the thyroid receptor (TR) signaling pathway - cell viability counter screen (AID 743064); also: % is scaled to controls: 0 for no effect and ±100 for the full control effect; nearly all actives have a fitted effect of over 50% in size
# Condition: GH3.TRE-Luc viability, CellTiter-Fluor, 24 h; series mostly up to 70.3 µM
Inconclusive results are not listed. Activity calls are given as the source filed them. The call rests on the fitted dose curve; in most records, active means well fitted cell-killing curve with a large enough effect in the repeat runs; inconclusive means weak or mixed curves, or effect the other way; inactive means no such curve, though single readings can be large or run the other way. Non-standard residues stand in square brackets, D forms with d. Residues, ends and D or L forms follow the SMILES beside them. *: point of attachment. Sta = CC(C)C[C@H](N)[C@@H](O)CC(=O)O; Isovaleryl = CC(C)CC(=O)*
Measured attribute: activity change, negative = cytotoxic

Answered examples (5):
C=CCCCCCCCCOC(C)=O
inactive
Cc1cccc(N)n1
inactive
CC(C)CC(=O)N[C@H](C(=O)N[C@H](C(=O)N[C@@H](CC(C)C)[C@@H](O)CC(=O)N[C@@H](C)C(=O)N[C@@H](CC(C)C)[C@@H](O)CC(=O)O)C(C)C)C(C)C (Isovaleryl-VV[Sta]A[Sta]-OH)
inactive
COC(=O)/C=C(\C)CCC=C(C)C
inactive
Cc1nnc(C(=O)NC(C)(C)c2nc(C(=O)NCc3ccc(F)cc3)c(O)c(=O)n2C)o1
inactive

The recorded activity change, negative = cytotoxic for CCCCCCCOC(C)=O is inactive

Record CC(C)(C)c1ccc(N)cc1 , field activity change, negative = cytotoxic: inactive

The reported activity change, negative = cytotoxic of the compound N#Cc1ccccc1C#N was inactive

Per the records, this compound ( N=C(N)N1CCc2ccccc2C1 ) has activity change, negative = cytotoxic equal to inactive

Input C/C=C/C(=O)CCCC . Output activity change, negative = cytotoxic: inactive

Reported activity change, negative = cytotoxic of CC(O)C(CO)C(C)O (centres undefined) : inactive

Looking up CC(O)CCCCn1c(=O)c2c(ncn2C)n(C)c1=O (centres undefined) , I found its activity change, negative = cytotoxic recorded as inactive

Note to self: activity change, negative = cytotoxic recorded for CC/C=C\CCCCCCCCCCOC(C)=O was inactive

For record CCN1CCN(C(=O)N[C@@H](C(=O)N[C@@H]2C(=O)N3[C@@H]2SC(C)(C)[C@H]3C(=O)O)c2ccccc2)C(=O)C1=O the listed activity change, negative = cytotoxic is inactive

---

# Assay notes: qHTS RealTime-Glo MT Cell Viability Assay in HEK293 cells - 8 hour (AID 1224887); also: top concentration of the series differs between compounds; % is scaled to controls: 0 for no effect and ±100 for the full control effect; nearly all actives have a fitted effect of over 50% in size
# Condition: RealTime-Glo luminescence; series mostly up to 76.8 µM
# Description: U.S. Tox21 Program National Center for Advancing Translational Sciences [NCATS] NIH Chemical Genomics Center [NCGC] U.S. Environmental Protection Agency [EPA] National Institutes of Environmental Health Sciences [NIEHS] National Toxicology Program [NTP] U.S. Food and Drug Administration [FDA] Tox21 Assay Overview: Measure of cell viability is critical in the cell-base assay. Analysis of cell viability is necessary for the characterization of cell responses to cytotoxic drugs and environmental stress. […]
Results filed as inconclusive are left out. Active and inactive are the calls of the source. Calls come from the whole dose curve; as a rule, active = well fitted cell-killing curve with a large enough effect in the repeat runs; inconclusive = weak or mixed curves, or effect the other way; inactive = flat fitted curve, though single readings scatter.
Measured attribute: activity change, negative = cytotoxicity

A selection of reference data follows.
C/C(=N\O)c1ccc(OCC(=O)N2CCCCC2)cc1
inactive
O=C(O)Cc1ccccc1Oc1ccc(Cl)cc1Cl
inactive
CSC(=O)c1cccc2nnsc12
inactive
Cc1ccc2cccnc2c1
inactive
C=C(C)C(=O)OCCOC1CC2CC1C1C=CCC21 (stereo not given)
inactive
CC(C)(C)C(=O)CCc1ccc(Cl)cc1
inactive

Moving on to another compound below.
The reported activity change, negative = cytotoxicity of the compound CCCCCC(=O)CC was inactive

---

# Assay notes: qHTS assay for small molecule agonists of the p53 signaling pathway (AID 651631); also: % is scaled to controls: 0 for no effect and ±100 for the full control effect; nearly all actives have a fitted effect of over 15% in size
# Condition: HCT-116 p53RE-bla reporter, beta-lactamase FRET ratio, 16 h; series mostly up to 73.3 µM
Results filed as inconclusive are left out. Calls of active or inactive are those of the source. The call rests on the fitted dose curve. Non-standard residues stand in square brackets, D forms with d. Residues, ends and D or L forms follow the SMILES beside them. *: point of attachment. Sta = CC(C)C[C@H](N)[C@@H](O)CC(=O)O; Isovaleryl = CC(C)CC(=O)*
Measured attribute: activation

Solved cases (5 shown):
COC(=O)c1ccc(C(=O)O)cc1
inactive
CNCCc1ccccn1
inactive
CCCCN=C(N)N=C(N)N
inactive
CC(C)(C)OC(=O)c1ccccc1C(=O)O
inactive
O=C(O)CCCCCCCCCC(=O)O
inactive

Form field activation, entry CCCOc1ccc(C(=O)OCCN(CC)CC)cc1N : inactive

activation recorded for this compound, CCCCS , is inactive

Record Cc1nnc(C(=O)NC(C)(C)c2nc(C(=O)NCc3ccc(F)cc3)c(O)c(=O)n2C)o1 . Reported activation: inactive

Value of measured activation for the entry CC(C)CC(=O)N[C@H](C(=O)N[C@H](C(=O)N[C@@H](CC(C)C)[C@@H](O)CC(=O)N[C@@H](C)C(=O)N[C@@H](CC(C)C)[C@@H](O)CC(=O)O)C(C)C)C(C)C (Isovaleryl-VV[Sta]A[Sta]-OH) : inactive

Value of activation reported for the compound C[C@@H]1CC[C@@]2(OC1)O[C@H]1C[C@H]3[C@@H]4CC[C@H]5C[C@@H](O)CC[C@]5(C)[C@H]4CC(=O)[C@]3(C)[C@H]1[C@@H]2C is inactive

---

# Assay notes: qHTS assay to identify small molecule antagonists of the androgen receptor (AR) signaling pathway using the MDA cell line in the presence of 0.5 nM R1881 - cell viability counter screen (AID 1259242); also: % is scaled to controls: 0 for no effect and ±100 for the full control effect; nearly all actives have a fitted effect of over 45% in size
# Condition: MDA-kb2 viability, CellTiter-Fluor protease fluorescence, 16 h; series mostly up to 92.4 µM
Inconclusive results are not listed. The source made the active and inactive calls. Calls follow the shape of the dose curve; as a rule, active = well fitted cell-killing curve with a large enough effect in the repeat runs; inconclusive = weak or mixed curves, or effect the other way; inactive = flat fitted curve, though single readings scatter.
Measured attribute: viability change, negative = cytotoxic

Here's what some known entries look like.
CCCCCCCCOCCC#N
inactive
C/C=C(\C)C(=O)OC/C=C(\C)CCC=C(C)C
inactive
CN(C)CCCN(C)C
2.3% [at 8.39 µM] (inactive)
Cc1cccc(N)n1
inactive
COCCCOc1cc(C[C@@H](C[C@H](N)[C@@H](O)C[C@H](C(=O)NCC(C)(C)C(N)=O)C(C)C)C(C)C)ccc1OC
inactive
C=CC(C)(CCC=C(C)C)OC(=O)C(C)C (configuration not stated)
inactive

Lab note: N=C(N)N1CCc2ccccc2C1 gave viability change, negative = cytotoxic of -5.28% [at 8.39 µM] (inactive)

---

# Assay notes: A CellTox Green Cytotoxicity Assay to monitor cytotoxicity in HEK293 cells - 32 hour (AID 1224881); also: % is scaled to controls: 0 for no effect and ±100 for the full control effect; nearly all actives have a fitted effect of over 40% in size
# Condition: CellTox Green fluorescence; series mostly up to 76.8 µM
Records with an inconclusive call do not appear. Active and inactive are the calls of the source. Calls come from the whole dose curve; as a rule, active = well fitted activation curve with a large enough effect in the repeat runs; inconclusive = weak or mixed curves; inactive = flat fitted curve, though single readings scatter.
Measured attribute: cytotoxicity increase

Field: example entries. Status: answers known.
CN(C)c1cc(NC(=O)CNC(C)(C)C)c(O)c2c1C[C@H]1C[C@H]3[C@H](N(C)C)C(=O)C(C(N)=O)=C(O)[C@@]3(O)C(=O)C1=C2O
inactive
COc1ccc2cc(CCC(C)=O)ccc2c1
inactive
CCCCCCCCCCCCCCCC/C=C/C1CC(=O)OC1=O (configuration not stated)
inactive
CCCCCCCCC1CO1 (configuration not stated)
inactive
CCOC(=O)CN1CCCC1=O
inactive

Please fill in: cytotoxicity increase reported for COc1cc2nc(N3CCN(C(=O)C4CCCO4)CC3)nc(N)c2cc1OC (configuration not stated) = inactive

Looking up O=CN1CCCCC1 , I see its cytotoxicity increase listed as inactive

// field: cytotoxicity increase; key: C[C@@H]1NC(=O)[C@@H](N)CNC(=O)[C@H](C2CCNC(N)=N2)NC(=O)/C(=C/NC(N)=O)NC(=O)[C@H](CNC(=O)C[C@@H](N)CCCN)NC1=O (some centres not stated) ; value = 19.4% [at 0.29 µM] (inactive)

Entry under test: CCCCCCCCCCCCCCCC(=O)OC . Its cytotoxicity increase was -5.35% [at 15.8 µM] (inactive)

Lab book: cytotoxicity increase of O=C(c1ccccc1)c1cccc(O)c1 noted as inactive

The reported cytotoxicity increase of the compound CC1=C(O)C(=O)CO1 was inactive

Documented cytotoxicity increase of CCCCN1C(=O)c2ccccc2C1=O : inactive
